Data provenance is patent US10471043B2.

Overview of reported CC50 at 48 h across a group of compounds:
- Assay Name: in vitro
- Condition Summary: human, CC50 (μg/mL)
Enter your answer as a number in µM; do not include the unit.

CCCCCCCCCC1CC(O)=C(C(=O)CCC)C(=O)O1 (stereo not shown) [Ex. 1] ... 33
CCCCCCC/C=C/C1CC(O)=C(C(=O)CCC)C(=O)O1 (stereo not shown) [Ex. 4] ... 36
CCCCCCCCC[C@@H]1CC(O)=C(C(=O)CCC)C(=O)O1 [Ex. 2A] ... 27

What CC50 at 48 h value was documented for this compound, CCCCCCCCCCCC1CC(O)=C(C(=O)CCC)C(=O)O1 (stereo not shown) [Ex. 16] ?
19

What CC50 at 48 h value was documented for this compound, CCCCCCCCCCC1CC(O)=C(C(=O)CC)C(=O)O1 (stereo not shown) [Ex. 10] ?
60

What CC50 at 48 h value was documented for this compound, CCCCCCCCC[C@H]1CC(O)=C(C(=O)CCC)C(=O)O1 [Ex. 2B] ?
25

---

- Tested on: Staphylococcus aureus strain LMG15975
- Assay Name: MIC by broth micro-dilution, AM3/PBS 1:1
- Type: cell-based
- Condition Summary: LMG15975, S. aureus LMG15975, Table 1, read-out: MIC (μg/ml)
Metric Name: MIC

Example molecules with recorded MIC:
CCCCCCCCCCC1CC(O)=C(C(C)=O)C(=O)O1 (stereo not shown) [Ex. 11] ... 0.8 to 1.2 µg/mL
CCCC(=O)C1=C(O)CC(CC2CCCC2)OC1=O (stereo not shown) [Ex. 22] ... 6 to 12 µg/mL
CCCCCCCCC1CC(O)=C(C(C)=O)C(=O)O1 (stereo not shown) [Ex. 7] ... 2.5 µg/mL
CCCCCCCCCCC1CC(O)=C(C(=O)CCCC)C(=O)O1 (stereo not shown) [Ex. 3] ... 0.4 to 0.6 µg/mL
CCCCCCCCCCCC1CC(O)=C(C(=O)CCCC)C(=O)O1 (stereo not shown) [Ex. 17] ... 0.1 to 0.2 µg/mL
CCCCCCCCCCC1CC(O)=C(C(=O)CCC)C(=O)O1 (stereo not shown) [Ex. 12] ... 0.6 to 0.8 µg/mL

What MIC value was documented for this molecule, CCCCCCCCCC1CC(O)=C(C(C)=O)C(=O)O1 (stereo not shown) [Ex. 9] ?
1.5 to 2.5 µg/mL

---

- System: E. faecium
- Assay Name: Antimicrobial Susceptibility Test by Broth Microdilution, M07-A9 CLSI
- Format: cell-based
- Condition Summary: Enterococcus faecium; E. faecium 7, Vancomycin-resistant, Table 5; read-out: MIC
Overview of reported MIC across a group of compounds:
Enter your answer as a number in µg/mL; do not include the unit.

Example compounds with recorded MIC:
CCCCCCCCCCCC1CC(O)=C(C(=O)CCC)C(=O)O1 (stereo not shown) ... 2
CCCCCCCCCCCC1CC(O)=C(C(=O)CCCC)C(=O)O1 (stereo not shown) ... 1
CCCCCCCCCC1CC(O)=C(C(=O)CC2CCCCC2)C(=O)O1 (stereo not shown) ... 1

Pending compound:
What MIC value was documented for this compound, CCCCCCCCCC1CC(O)=C(C(=O)CCC)C(=O)O1 (stereo not shown) ?
2

---

- System: Staphylococcus aureus strain LMG15975
- Assay Name: MIC by broth micro-dilution, AM3/PBS 1:1
- Format: cell-based
- Condition Summary: LMG15975, S. aureus LMG 15975 (SLU), Methicillin-resistant, Table 5, read-out: MIC (μg/mL)
Metric Name: MIC

CCCCCCCCCCCC1CC(O)=C(C(=O)CCCC)C(=O)O1 (stereo not shown) [Ex. 17] ... 0.1 to 0.2 µg/mL
CCCCCCCCCC1CC(O)=C(C(=O)CC2CCCCC2)C(=O)O1 (stereo not shown) [Ex. 14] ... 0.25 µg/mL
CCCCCCCCCC1CC(O)=C(C(=O)CCC)C(=O)O1 (stereo not shown) [Ex. 1] ... 0.8 µg/mL

Pending compound:
What MIC value was documented for this compound, CCCCCCCCCCCC1CC(O)=C(C(=O)CCC)C(=O)O1 (stereo not shown) [Ex. 16] ?
0.1 to 0.2 µg/mL
